B1: Ankyrin-3, residues 4094 to 4171; numbered along this chain, Q12955 (parent)
chain: MAIVADHLGLSWTELARELNFSVDEINQIRVENPNSLISQSFMLLKKWVTRDGKNATTDALTSVLTKINRIDIVTLLE

- Variants of: B1
- Assay text: abundance fitness (aPCA) (normalised: wild type 0, dead -1); higher = more abundant; growth selection in yeast, the domain comes from the species named
- Cond: Homo sapiens
Quantity: abundance fitness
Answers are plain numbers.

Mutant code: T57F
abundance fitness: -0.39

Mutant code: L77G
abundance fitness: -0.68

Mutant code: T62W
abundance fitness: -0.434

Mutant code: V64F
abundance fitness: 0.111

Mutant code: W12V
abundance fitness: -0.753

Mutant code: V23G
abundance fitness: -0.004

Mutant code: L15P
abundance fitness: -0.741

Mutant code: F42K
abundance fitness: 0.201

Mutant code: L61A
abundance fitness: -0.732

Mutant code: E14I
abundance fitness: -0.278

Below are 6 variants. Give each one its abundance fitness.
1. N27G
2. T66A
3. K67S
4. L15I
5. A56F
6. D52N

Solution:
1. -0.798
2. -0.14
3. -0.285
4. -0.387
5. -0.304
6. -0.687

Below are 8 variants. Give each one its abundance fitness.
1. R51V
2. S63Q
3. T66K
4. N55D
5. M43H
6. H7D
7. S39H
8. I38V

Solution:
1. -0.789
2. -0.012
3. -0.1
4. 0.066
5. 0.014
6. -0.796
7. -0.084
8. 0.027

Cited source: the Human Domainome abundance scans (Beltran et al. 2025)
